Values from patent US20230203155A1

molecular target: T1, mouse ROR1-Fc fusion protein (mouse); assay: SPR, mouse ROR1 on chip
T1 construct: Whole entry 'mouse ROR1-Fc (CHO)'; also called mROR1
T1 sequence (chain, as listed by the source limits assumed): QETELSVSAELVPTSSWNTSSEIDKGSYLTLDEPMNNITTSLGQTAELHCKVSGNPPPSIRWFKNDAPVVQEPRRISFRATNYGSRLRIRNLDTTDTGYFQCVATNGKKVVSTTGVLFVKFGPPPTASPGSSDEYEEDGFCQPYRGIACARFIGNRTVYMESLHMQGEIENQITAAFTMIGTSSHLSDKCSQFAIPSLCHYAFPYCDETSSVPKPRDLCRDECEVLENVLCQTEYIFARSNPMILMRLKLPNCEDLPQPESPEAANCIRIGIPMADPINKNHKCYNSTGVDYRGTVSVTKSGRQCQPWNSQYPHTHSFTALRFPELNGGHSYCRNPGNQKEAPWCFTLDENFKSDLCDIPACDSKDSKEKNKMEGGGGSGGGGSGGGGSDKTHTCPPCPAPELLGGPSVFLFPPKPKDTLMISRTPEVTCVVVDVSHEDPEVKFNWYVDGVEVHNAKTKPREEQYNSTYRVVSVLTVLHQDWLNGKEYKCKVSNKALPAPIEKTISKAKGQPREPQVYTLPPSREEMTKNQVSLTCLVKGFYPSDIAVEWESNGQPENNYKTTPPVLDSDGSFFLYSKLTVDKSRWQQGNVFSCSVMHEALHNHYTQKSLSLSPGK
endpoint: koff

binder	reported.measurement
CPF7 his myc (VNAR, VNAR) VNAR: TRVDQTPRTATKETGESLTINCVVTGAKYGLFATYWYRKNPGSSNQERISISGRYVESVNKRTMSFSLRIKDLTVADSATYYCKAVFMPQHWHPAAHWYDGAGTVLTVNQ	0.032 s⁻¹
P3A1 his myc (VNAR, VNAR; also called P3A1 6xHis myc) VNAR: TRVDQTPRTATKETGESLTINCVLTDTSYGLYSTSWFRKNPGTTDWERMSIGGRYVESVNKGAKSFSLRIKDLTVADSATYYCKAREARHPWLRQWYDGAGTVLTVNQ	0.0408 s⁻¹
E7 his myc (VNAR, VNAR) VNAR: TRVDQTPRTATKETGESLTINCVVTGAKYGLAATYWYRKNPGSSNQERISISGRYVESVNKRTMSFSLRIKDLTVADSATYYCKAYPWAMWGQWYDGAGTVLTVNQ	0.002 s⁻¹

Then there is this binder:
INPUT: Dear colleague, please send me the reported koff for P3A1-[G4S]5-P3A1 his myc (VNAR, VNAR homodimer by genetic fusion; also called P3A1-P3A1; P3A1 dimer) TRVDQTPRTATKETGESLTINCVLTDTSYGLYSTSWFRKNPGTTDWERMSIGGRYVESVNKGAKSFSLRIKDLTVADSATYYCKAREARHPWLRQWYDGAGTVLTVNGGGGSGGGGSGGGGSGGGGSGGGGSTRVDQTPRTATKETGESLTINCVLTDTSYGLYSTSWFRKNPGTTDWERMSIGGRYVESVNKGAKSFSLRIKDLTVADSATYYCKAREARHPWLRQWYDGAGTVLTVNQASGAHHHHHHGAEFEQKLISEEDL when you can.
OUTPUT: 0.00145 s⁻¹
